target: p53 wild-type (Homo sapiens, UniProt P04637 P04637:1-393); assay: pulldown; settings: chain copies: 4; label: 32P
Sequence (P04637 whole entry, one chain of several): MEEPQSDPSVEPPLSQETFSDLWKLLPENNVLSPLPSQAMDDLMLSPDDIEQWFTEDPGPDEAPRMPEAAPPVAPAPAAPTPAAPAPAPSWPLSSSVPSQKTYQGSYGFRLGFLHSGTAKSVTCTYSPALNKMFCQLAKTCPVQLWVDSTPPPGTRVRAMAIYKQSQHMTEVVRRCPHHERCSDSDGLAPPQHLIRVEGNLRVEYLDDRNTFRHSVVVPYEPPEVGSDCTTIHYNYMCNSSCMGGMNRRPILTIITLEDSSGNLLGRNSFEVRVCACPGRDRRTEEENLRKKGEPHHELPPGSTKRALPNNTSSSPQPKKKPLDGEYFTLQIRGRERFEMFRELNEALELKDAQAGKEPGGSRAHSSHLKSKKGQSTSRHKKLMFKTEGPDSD

binder	binding result
synthetic oligo 8 (cloned consensus dimer, inverted) (dsDNA) DNA 1: TGCAGGAATTCGATAGACATGCCTAGGCATGTCTATCAAGCTTATCGAT DNA 2: ATCGATAAGCTTGATAGACATGCCTAGGCATGTCTATCGAATTCCTGCA	binds
synthetic oligo 7 (cloned consensus dimer, inverted) (dsDNA) DNA 1: TGCAGGAATTCGATAGGCATGTCTAGACATGCCTATCAAGCTTATCGAT DNA 2: ATCGATAAGCTTGATAGGCATGTCTAGACATGCCTATCGAATTCCTGCA	binds
synthetic oligo 6 (cloned consensus dimer) (dsDNA) DNA 1: TGCAGGAATTCGATAGGCATGTCTAGGCATGTCTATCAAGCTTATCGAT DNA 2: ATCGATAAGCTTGATAGACATGCCTAGACATGCCTATCGAATTCCTGCA	binds
